Target: CCR2 (Homo sapiens)
Construct: (leukophoresis pack); host or cells: human peripheral blood mononuclear cells (PBMCs) from a normal human leukophoresis pack
Sequence (P41597 whole entry): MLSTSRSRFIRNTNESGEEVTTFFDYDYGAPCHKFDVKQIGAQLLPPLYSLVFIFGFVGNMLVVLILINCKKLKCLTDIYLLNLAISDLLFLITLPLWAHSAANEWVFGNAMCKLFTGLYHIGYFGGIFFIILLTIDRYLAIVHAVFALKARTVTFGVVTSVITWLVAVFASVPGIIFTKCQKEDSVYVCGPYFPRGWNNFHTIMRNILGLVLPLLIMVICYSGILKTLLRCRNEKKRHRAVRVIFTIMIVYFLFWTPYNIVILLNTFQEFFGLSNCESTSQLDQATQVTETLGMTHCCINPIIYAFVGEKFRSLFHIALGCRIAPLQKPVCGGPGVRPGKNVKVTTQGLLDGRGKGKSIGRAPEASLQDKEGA
Test: hCCR2 (125-I hMCP-1) small molecule binding assay on human PBMCs
Conditions: 125I-MCP-1, human PBMCs, 1 hr preincubation; read-out: IC50 (nM) 1 hr preinc
Source text: The CCR2 antagonist activity of compounds of the invention can be reported as the inhibitor concentration required for 50% inhibition (IC50 values) of specific binding in receptor binding assays using 125I-labeled MCP-1, as ligand, and Peripheral Blood Mononuclear Cells (PBMCs) prepared from normal human whole blood via density gradient centrifugation. […] Finally, the sample is counted an a Gamma Counter. […]
EXPERIMENTAL ENDPOINT: IC50 (nM)

> print(dat)
                                  mol.smiles  data.value
 1  CO[C@@H]1COCC[C@@H]1N[C@@H]1CC[C@@](C(=O)N2C[C@@H]3C[C@H]2CN3c2ccnc(C(F)(F)F)n2)(C(C)C)C1         4.6
 2  CO[C@@H]1COCC[C@@H]1N[C@@H]1CC[C@](CC(F)(F)F)(C(=O)N2C[C@@H]3C[C@H]2CN3c2cc(C(F)(F)F)ncn2)C1        11.7
 3  CO[C@@H]1COCC[C@@H]1N[C@@H]1CC[C@](CC(F)F)(C(=O)N2C[C@@H]3C[C@H]2CN3c2cc(C(F)(F)F)ncn2)C1        8.87
 4  CO[C@@H]1COCC[C@@H]1N[C@@H]1CC[C@@](C(=O)N2C[C@@H]3C[C@H]2CN3c2cccc(C(F)(F)F)c2)(C(C)C)C1         1.1
 5  CO[C@@H]1COCC[C@@H]1N[C@@H]1CC[C@@](C(=O)N2C[C@@H]3C[C@H]2CN3c2cc(C(F)(F)F)cnn2)(C(C)C)C1         8.5
 6  CO[C@@H]1COCC[C@@H]1N[C@@H]1CC[C@](CC(F)(F)F)(C(=O)N2C[C@@H]3C[C@H]2CN3C(=O)OC(C)(C)C)C1         8.1
 7  CO[C@@H]1COCC[C@@H]1N[C@@H]1CC[C@](CC(F)F)(C(=O)N2C[C@@H]3C[C@H]2CN3c2ccnc(C(F)(F)F)c2)C1        7.85
 8  CO[C@@H]1COCC[C@@H]1N[C@@H]1CC[C@@](C(=O)N2C[C@@H]3C[C@H]2CN3c2cc(C(F)(F)F)nc(C(F)(F)F)c2)(C(C)C)C1        6.35
 9  CO[C@@H]1COCC[C@@H]1N[C@@H]1CC[C@@](C(=O)N2C[C@@H]3C[C@H]2CN3c2nccc(C(F)(F)F)n2)(C(C)C)C1         1.7
10  CO[C@@H]1COCC[C@@H]1N[C@@H]1CC[C@](CC(F)F)(C(=O)N2C[C@@H]3C[C@H]2CN3c2cc(C(F)(F)F)ccn2)C1        0.93
11  CO[C@@H]1COCC[C@@H]1N[C@@H]1CC[C@](CC(F)(F)F)(C(=O)N2C[C@@H]3C[C@H]2CN3c2cc(C(F)(F)F)cnn2)C1        5.81
12  CO[C@@H]1COCC[C@@H]1N[C@@H]1CC[C@@](C(=O)N2C[C@@H]3C[C@H]2CN3c2cccc(C(F)(F)F)n2)(C(C)C)C1         1.1
13  CO[C@@H]1COCC[C@@H]1N[C@@H]1CC[C@@](C(=O)N2C[C@@H]3C[C@H]2CN3c2cncc(C(F)(F)F)n2)(C(C)C)C1         2.3
14  CO[C@@H]1COCC[C@@H]1N[C@@H]1CC[C@](CC(F)(F)F)(C(=O)N2C[C@@H]3C[C@H]2CN3c2cncc(C(F)(F)F)n2)C1        3.68
15  CO[C@@H]1COCC[C@@H]1N[C@@H]1CC[C@@](C(=O)N2C[C@@H]3C[C@H]2CN3c2cc(C(F)(F)F)ncn2)(C(C)C)C1        3.68
16  CO[C@@H]1COCC[C@@H]1N[C@@H]1CC[C@](CC(F)F)(C(=O)N2C[C@@H]3C[C@H]2CN3c2cccc(C(F)(F)F)n2)C1        1.88
17  CO[C@@H]1COCC[C@@H]1N[C@@H]1CC[C@](CC(F)(F)F)(C(=O)N2C[C@@H]3C[C@H]2CN3c2ccnc(C(F)(F)F)c2)C1        6.94
18  CO[C@@H]1COCC[C@@H]1N[C@@H]1CC[C@](CC(F)(F)F)(C(=O)N2C[C@@H]3C[C@H]2CN3c2ccnc(C(F)(F)F)n2)C1        2.02

====

biological target: CCR2 (Homo sapiens); construct: (leukophoresis pack); host or cells: human peripheral blood mononuclear cells (PBMCs) from a normal human leukophoresis pack; assay: hCCR2 (125-I hMCP-1) small molecule binding assay on human PBMCs; settings: 125I-MCP-1, human PBMCs, 30 min preincubation; read-out: IC50 (nM) 30 min preinc
// returns NO unless IC50 is strictly below 20 nM, in which case YES

> print(dat)
                                    compound  class.name
 1  CO[C@@H]1COCC[C@@H]1N[C@@H]1CC[C@@](C(=O)N2C[C@@H]3C[C@H]2CN3c2cc(C(F)(F)F)cnn2)(C(C)(C)O)C1 [Example 55]          NO
 2  CC[C@]1(C(=O)N2C[C@@H]3C[C@H]2CN3c2nccc(C(F)(F)F)n2)CC[C@@H](N[C@H]2CCOC[C@H]2OC)C1 [Example 2]         YES
 3  CO[C@@H]1COCC[C@@H]1N[C@@H]1CC[C@@](C(=O)N2C[C@@H]3C[C@H]2CN3c2nccc(C(F)(F)F)n2)(C(C)C)C1 [Example 12]         YES
 4  CO[C@@H]1COCC[C@@H]1N[C@@H]1CC[C@@](C(=O)N2C[C@@H]3C[C@H]2CN3c2ccnc(C(F)(F)F)n2)(C(C)(C)O)C1 [Example 56]          NO
 5  CO[C@@H]1COCC[C@@H]1N[C@@H]1CC[C@@](C(=O)N2C[C@@H]3C[C@H]2CN3c2nccc(C(F)(F)F)c2F)(C(C)C)C1 [Example 20]         YES
 6  CO[C@@H]1COCC[C@@H]1N[C@@H]1CC[C@](CC(F)F)(C(=O)N2C[C@@H]3C[C@H]2CN3c2nccc(C(F)(F)F)n2)C1 [Example 27]         YES
 7  CC[C@]1(C(=O)N2C[C@@H]3C[C@H]2CN3c2cc(C(F)(F)F)ccn2)CC[C@@H](N[C@H]2CCOC[C@H]2OC)C1 [Example 1]         YES
 8  CO[C@@H]1COCC[C@@H]1N[C@@H]1CC[C@](CC(F)(F)F)(C(=O)N2C[C@@H]3C[C@H]2CN3c2nccc(C(F)(F)F)n2)C1 [Example 35]          NO
 9  CC[C@]1(C(=O)N2C[C@@H]3C[C@H]2CN3c2ccnc(C(F)(F)F)c2)CC[C@@H](N[C@H]2CCOC[C@H]2OC)C1 [Example 7]         YES
10  CO[C@@H]1COCC[C@@H]1N[C@@H]1CC[C@](CC(F)F)(C(=O)N2C[C@@H]3C[C@H]2CN3c2ccnc(C(F)(F)F)n2)C1 [Example 30]          NO

====

target: CCR2 (Homo sapiens); construct: (leukophoresis pack); host or cells: human peripheral blood mononuclear cells (PBMCs) from a normal human leukophoresis pack; test: hCCR2 (125-I hMCP-1) small molecule binding assay on human PBMCs; conditions: 125I-MCP-1, human PBMCs, 30 min preincubation; read-out: IC50 (nM) 30 min preinc

MOLECULE	IC50
CO[C@@H]1COCC[C@@H]1N[C@@H]1CC[C@@](C(=O)N2C[C@@H]3C[C@H]2CN3c2cc(C(F)(F)F)ncn2)(C(C)C)C1	25.4 nM
CO[C@@H]1COCC[C@@H]1N[C@@H]1CC[C@@](C(=O)N2C[C@@H]3C(F)[C@H]2CN3c2cc(C(F)(F)F)ccn2)(C(C)C)C1 (stereo partly drawn)	4.3 nM
CC[C@]1(C(=O)N2C[C@@H]3C[C@H]2CN3c2cc(C(F)(F)F)ncn2)CC[C@@H](N[C@H]2CCOC[C@H]2OC)C1	17.8 nM
CO[C@@H]1COCC[C@@H]1N[C@@H]1CC[C@@](C(=O)N2C[C@@H]3C[C@H]2CN3c2nccc(C(F)(F)F)n2)(C(C)(C)O)C1	8.46 nM
CO[C@@H]1COCC[C@@H]1N[C@@H]1CC[C@](CC(F)F)(C(=O)N2C[C@@H]3C[C@H]2CN3c2cc(C(F)(F)F)ncn2)C1	79.7 nM
CO[C@@H]1COCC[C@@H]1N[C@@H]1CC[C@](CC(F)(F)F)(C(=O)N2C[C@@H]3C[C@H]2CN3c2cccc(C(F)(F)F)n2)C1	12.6 nM
CO[C@@H]1COCC[C@@H]1N[C@@H]1CC[C@@](C(=O)N2C[C@@H]3C[C@H]2CN3c2cncc(C(F)(F)F)n2)(C(C)(C)O)C1	17.7 nM
CO[C@@H]1COCC[C@@H]1N[C@@H]1CC[C@@](C(=O)N2C[C@@H]3C[C@H]2CN3c2ccnc(C(F)(F)F)n2)(C(C)C)C1	40 nM
CO[C@@H]1COCC[C@@H]1N[C@@H]1CC[C@@](C(=O)N2C[C@@H]3C[C@H]2CN3c2cc(C(F)(F)F)ncn2)(C2(O)CCC2)C1	35.8 nM
CO[C@@H]1COCC[C@@H]1N[C@@H]1CC[C@@](C(=O)N2C[C@@H]3C[C@H]2CN3c2cc(C(F)(F)F)ccn2)(C(C)(C)O)C1	5.4 nM
CO[C@@H]1COCC[C@@H]1N[C@@H]1CC[C@@](C(=O)N2C[C@@H]3C(O)[C@H]2CN3C(=O)OC(C)(C)C)(C(C)C)C1 (stereo partly drawn)	8.7 nM
CO[C@@H]1COCC[C@@H]1N[C@@H]1CC[C@@](C(=O)N2C[C@@H]3C[C@H]2CN3c2cc(C(F)(F)F)ncn2)(C(C)(C)O)C1	27.6 nM
CO[C@@H]1COCC[C@@H]1N[C@@H]1CC[C@](CC(F)F)(C(=O)N2C[C@@H]3C[C@H]2CN3c2ccnc(C(F)(F)F)c2)C1	29.3 nM
CC[C@]1(C(=O)N2C[C@@H]3C[C@H]2CN3c2nccc(C(F)(F)F)c2F)CC[C@@H](N[C@H]2CCOC[C@H]2OC)C1	10.7 nM
CO[C@@H]1COCC[C@@H]1N[C@@H]1CC[C@](C)(C(=O)N2C[C@@H]3C[C@H]2CN3c2cncc(C(F)(F)F)n2)C1	83.8 nM
CO[C@@H]1COCC[C@@H]1N[C@@H]1CC[C@@](C(=O)N2C[C@@H]3C[C@H]2CN3c2cccc(C(F)(F)F)n2)(C(C)C)C1	9.95 nM
CO[C@@H]1COCC[C@@H]1N[C@@H]1C=C[C@@](C(=O)N2C[C@@H]3C[C@H]2CN3c2cc(C(F)(F)F)ccn2)(C(C)C)C1	18.3 nM
CO[C@@H]1COCC[C@@H]1N[C@@H]1CC[C@@](C(=O)N2C[C@@H]3C[C@H]2CN3c2cc(C(F)(F)F)ccn2)(C2CCOC2)C1 (stereo partly drawn) [Example 60]	2.4 nM
